STUDY SYSTEM: Translin-associated protein X (Homo sapiens, UniProt Q99598, E126A)
PROCEDURE DETAILS: Inhibition of wild type His-tagged translin/trax E126A mutant (unknown origin) coexpressed in Escherichia coli BL21 cells assessed as reduction in pre-miRNA degradation by gel electrophoresis assay
pIC50: −log10 of the molar value.

COMPOUND STRUCTURE | pIC50
O=c1oc2c(O)c(O)cc3c(=O)oc4c(O)c(O)cc1c4c23 | 5.46

----------
Tested on: Translin-associated protein X (Homo sapiens), Q99598 [E126A]
Sequence (Q99598 whole entry E126A): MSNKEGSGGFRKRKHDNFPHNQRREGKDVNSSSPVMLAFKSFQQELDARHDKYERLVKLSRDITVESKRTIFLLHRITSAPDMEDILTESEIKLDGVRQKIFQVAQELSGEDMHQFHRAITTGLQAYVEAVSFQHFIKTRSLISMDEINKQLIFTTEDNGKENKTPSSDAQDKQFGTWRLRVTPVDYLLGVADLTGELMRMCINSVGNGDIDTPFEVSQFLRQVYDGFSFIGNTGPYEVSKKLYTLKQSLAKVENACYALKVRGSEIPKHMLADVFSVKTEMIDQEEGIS
PROCEDURE DETAILS: Inhibition of wild type His-tagged translin/trax E126A mutant (unknown origin) coexpressed in Escherichia coli BL21 cells using RNase Alert as substrate at 30 uM incubated for 10 mins prior to substrate addition monitored over 60 mins by fluorescence assay

MOLECULE | STUDY SYSTEM | inhibition / %
Oc1cc2c(cc1O)[C@@H]1c3ccc(O)c(O)c3OC[C@]1(O)C2 | Translin-associated protein X (Homo sapiens), Q99598 [E126A] | 63
O=C1C(O)=C(O)C(=O)C(O)=C1O | Translin-associated protein X (Homo sapiens), Q99598 [E126A] | 66
O=C(O[C@@H]1Cc2c(O)cc(O)cc2O[C@@H]1c1cc(O)c(O)c(O)c1)c1cc(O)c(O)c(O)c1 | Translin-associated protein X (Homo sapiens), Q99598 [E126A] | 88
CCCCC(CC)CNC(=N)NC(=N)NCCCCCCNC(=N)NC(=N)NCC(CC)CCCC (centres undefined) | Translin-associated protein X (Homo sapiens), Q99598 [E126A] | 103
